biological target: the molecule itself; test: SEC-coupled SAXS; inline HPLC, Shodex KW404-4F, 20°C, 20 mM HEPES, 150 mM NaCl, pH 7.4, 2.5 mM DTT; 75 µl of 5 mg/ml HSPB6 or equivalent molarity loaded (ΔN11: 111 µl of 3.37 mg/ml); mass at the peak maximum from I0 and Porod volume; number of subunits of the oligomer
Would you mind telling me the reported stoichiometry N of each entry?
Please reply with the bare figure in subunits and do not write the unit itself.

Looking for the measured stoichiometry N of HSPB6 Δ51–60 (natural protein, human, UniProt O14558 1-160, looked up, HSPB6, human, full-length protein with residues 51-60 deleted; source: E. coli NiCo21 (DE3) with pRARE2, purified (subtractive IMAC, anion exchange, SEC); not shown: SUMO, N-terminal, cleaved) MEIPVPVQPSWLRRASAPLPGLSAPGRLFDQRFGEGLLEAELAALCPTTLALPVAQVPTDPGHFSVLLDVKHFSPEEIAVKVVGEHVEVHARHEERPDEHGFVAREFHRRYRLPPGVDPAAVTSALSPEGVLSIQAAPASAQAPPPAAAK , can you help?
1.9

Looking for the measured stoichiometry N of HSPB6 F33A (natural protein, human, UniProt O14558 1-160, looked up, HSPB6, human, full-length protein with the point mutation F33A; source: E. coli NiCo21 (DE3) with pRARE2, purified (subtractive IMAC, anion exchange, SEC); not shown: SUMO, N-terminal, cleaved) MEIPVPVQPSWLRRASAPLPGLSAPGRLFDQRAGEGLLEAELAALCPTTLAPYYLRAPSVALPVAQVPTDPGHFSVLLDVKHFSPEEIAVKVVGEHVEVHARHEERPDEHGFVAREFHRRYRLPPGVDPAAVTSALSPEGVLSIQAAPASAQAPPPAAAK , can you help?
2.3
